Tested on: K24384-001-R-PDC complex spheroid growth;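 also: percent of DMSO vehicle-treated spheroid viability set as 100%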
procedure_details: Anticancer human tumor K24384-001-R-PDC patient-derived pancreatic adenocarcinoma cell line growth inhibition [AhR]
condition_description: second compound 3.16 µM; first compound 0.0316 µM; stronger effect = lower value

# molecule, viability, T/C
measured = [
    ("COc1cccc2c1C(=O)c1c(O)c3c(c(O)c1C2=O)CC(O)(C(=O)CO)CC3OC1CC(N)C(O)C(C)O1 (stereo unspecified) + CC(CO)NC(=O)c1cc(-c2ccc(Cl)cc2)nn(-c2cnn(C)c2)c1=O", "58.1%"),
    ("CC1COCCN1c1cc(-c2ccnn2C)c2ccnc(-c3ccn[nH]3)c2n1 (stereo unspecified) + Cc1cncc(-c2nc(NCCc3c[nH]c4ccccc34)c3ncn(C(C)C)c3n2)c1", "69%"),
    ("O=C(c1cc(Cc2n[nH]c(=O)c3ccccc23)ccc1F)N1CCN(C(=O)C2CC2)CC1 + Cc1ccccc1N=Nc1ccc(NC(=O)c2ccnn2C)c(C)c1", "75.9%"),
    ("CC[C@@]1(O)C(=O)OCc2c1cc1n(c2=O)Cc2cc3c(CN(C)C)c(O)ccc3nc2-1 + CC(CO)NC(=O)c1cc(-c2ccc(Cl)cc2)nn(-c2cnn(C)c2)c1=O", "53.5%"),
    ("CC1COCCN1c1cc(C2(S(C)(=N)=O)CC2)nc(-c2ccnc3[nH]ccc23)n1 (stereo unspecified) + Cc1ccccc1N=Nc1ccc(NC(=O)c2ccnn2C)c(C)c1", "76.4%"),
    ("COc1cc(Nc2ncc3c(n2)-c2ccc(Cl)cc2C(c2c(F)cccc2OC)=NC3)ccc1C(=O)O + Cc1cncc(-c2nc(NCCc3c[nH]c4ccccc34)c3ncn(C(C)C)c3n2)c1", "80.5%"),
]
